- target.system: CFTR (Homo sapiens)
- assay.name: Membrane Potential Dye, Enteroid Assay B
- Format: cell-based
- experimental.conditions: read-out: Ent. B EC50
pEC50: −log10 of the molar value.
measurement.type: pEC50

In: Given the compound Cc1cccc(C)c1-c1nc2nc(c1C)OC[C@@H](CC(C)(C)O)NC(=O)c1cccc(c1)S(=O)(=O)N2 [Compound 105] , what is its reported pEC50?
Out: 4.52 to 5.52

In: Given the compound COC1CC(N2C(=O)c3cccc(c3)S(=O)(=O)Nc3nc(c(C)c(-c4c(C)cccc4C)n3)OC[C@H]2CC(C)C)C1 (stereo in doubt) [Compound 72] , what is its reported pEC50?
Out: > 6.00

In: Given the compound Cc1cccc(C)c1-c1nc2nc(c1C)OC[C@@H](CC(C)C)N(C1CC3(CCN(C)CC3)C1)C(=O)c1cccc(c1)S(=O)(=O)N2 [Compound 74] , what is its reported pEC50?
Out: > 6.00

In: Given the compound Cc1cccc(C)c1-c1nc2nc(c1C)OC[C@@H](CC(C)(C)C)N(C1CC3(CC(NC(=O)OC(C)C)C3)C1)C(=O)c1cccc(c1)S(=O)(=O)N2 (single isomer, unassigned) [Compound 65] , what is its reported pEC50?
Out: > 6.00

In: Given the compound COc1c2nc(nc1-c1c(C)cccc1C)NS(=O)(=O)c1cccc(c1)C(=O)N(C1CC3(CC3)C1)[C@H](CC(C)C)CO2 [Compound 179] , what is its reported pEC50?
Out: > 6.00

In: Given the compound Cc1cccc(C)c1-c1nc2nc(c1C)OC[C@@H](CC1(C(F)(F)F)CC1)N(C1CC3(CC(CO)C3)C1)C(=O)c1cccc(c1)S(=O)(=O)N2 (stereo partly drawn) [Compound 81] , what is its reported pEC50?
Out: > 6.00

In: Given the compound Cc1cccc(C)c1-c1nc2nc(c1F)OC[C@@H](CC(C)C)N(C1CC3(CC3)C1)C(=O)c1cccc(c1)S(=O)(=O)N2 [Compound 175] , what is its reported pEC50?
Out: > 6.00

In: Given the compound Cc1cccc(C)c1-c1nc2nc(c1OC(C)C)OC[C@@H](CC(C)C)N(C1CC3(CCN(C)CC3)C1)C(=O)c1cccc(c1)S(=O)(=O)N2 [Compound 176] , what is its reported pEC50?
Out: > 6.00

In: Given the compound Cc1cccc(C)c1-c1nc2nc(c1C)OC[C@@H](CC(C)C)N([C@H]1C[C@@]3(C[C@H](NC(=O)OC(C)C)C3)C1)C(=O)c1cccc(c1)S(=O)(=O)N2 (single isomer, unassigned) [Compound 52] , what is its reported pEC50?
Out: > 6.00

In: Given the compound Cc1cccc(C)c1-c1nc2nc(c1C)OC[C@@H](CC(C)C)N(C1CC3(CC3)C1)C(=O)c1cccc(c1)S(=O)(=O)N2 [Compound 75] , what is its reported pEC50?
Out: > 6.00

In: Given the compound Cc1cccc(C)c1-c1nc2nc(c1C)OC[C@@H](C)NC(=O)c1cccc(c1)S(=O)(=O)N2 [Compound 117] , what is its reported pEC50?
Out: 5.52 to 6.00

In: Given the compound CCc1c2nc(nc1-c1c(C)cccc1C)NS(=O)(=O)c1cccc(c1)C(=O)N(C1CC3(CC3)C1)[C@H](CC(C)(C)C)CO2 [Compound 188] , what is its reported pEC50?
Out: > 6.00

====

- target.system: UniProt P13569
- assay.name: Membrane Potential Dye, Enteroid Assay A
- Assay type: cell-based
measurement.type: Ent. A Max Activity

>>> reported_result("Cc1ccccc1-c1nc2nc(c1C(C)(C)C)OCC1CN(CCN1CCC1(C(F)(F)F)CC1)C(=O)c1cccc(c1)S(=O)(=O)N2 (stereo not shown)")
"+++ (+++ is >60%)"
>>> reported_result("CCc1c2nc(nc1-c1ccncc1C)NS(=O)(=O)c1cccc(c1)NC(=O)c1cccc(c1)O2")
"+ (+ is <30%)"
>>> reported_result("CCc1c2nc(nc1-c1ccccc1C(C)C)NS(=O)(=O)c1cccc(c1)NC(=O)c1cccc(c1)O2")
"+++ (+++ is >60%)"
>>> reported_result("CCc1c2nc(nc1-c1cccnc1C)NS(=O)(=O)c1cccc(c1)NC(=O)c1cccc(c1)O2")
"+ (+ is <30%)"

====

- target.system: CFTR (Homo sapiens, UniProt P13569, DEL508-508)
- Construct: endogenous in cells; host or cells: primary human bronchial epithelial cells, F508del/MF genotype
- Sequence (P13569 with tags, fused parts or gaps DEL508-508): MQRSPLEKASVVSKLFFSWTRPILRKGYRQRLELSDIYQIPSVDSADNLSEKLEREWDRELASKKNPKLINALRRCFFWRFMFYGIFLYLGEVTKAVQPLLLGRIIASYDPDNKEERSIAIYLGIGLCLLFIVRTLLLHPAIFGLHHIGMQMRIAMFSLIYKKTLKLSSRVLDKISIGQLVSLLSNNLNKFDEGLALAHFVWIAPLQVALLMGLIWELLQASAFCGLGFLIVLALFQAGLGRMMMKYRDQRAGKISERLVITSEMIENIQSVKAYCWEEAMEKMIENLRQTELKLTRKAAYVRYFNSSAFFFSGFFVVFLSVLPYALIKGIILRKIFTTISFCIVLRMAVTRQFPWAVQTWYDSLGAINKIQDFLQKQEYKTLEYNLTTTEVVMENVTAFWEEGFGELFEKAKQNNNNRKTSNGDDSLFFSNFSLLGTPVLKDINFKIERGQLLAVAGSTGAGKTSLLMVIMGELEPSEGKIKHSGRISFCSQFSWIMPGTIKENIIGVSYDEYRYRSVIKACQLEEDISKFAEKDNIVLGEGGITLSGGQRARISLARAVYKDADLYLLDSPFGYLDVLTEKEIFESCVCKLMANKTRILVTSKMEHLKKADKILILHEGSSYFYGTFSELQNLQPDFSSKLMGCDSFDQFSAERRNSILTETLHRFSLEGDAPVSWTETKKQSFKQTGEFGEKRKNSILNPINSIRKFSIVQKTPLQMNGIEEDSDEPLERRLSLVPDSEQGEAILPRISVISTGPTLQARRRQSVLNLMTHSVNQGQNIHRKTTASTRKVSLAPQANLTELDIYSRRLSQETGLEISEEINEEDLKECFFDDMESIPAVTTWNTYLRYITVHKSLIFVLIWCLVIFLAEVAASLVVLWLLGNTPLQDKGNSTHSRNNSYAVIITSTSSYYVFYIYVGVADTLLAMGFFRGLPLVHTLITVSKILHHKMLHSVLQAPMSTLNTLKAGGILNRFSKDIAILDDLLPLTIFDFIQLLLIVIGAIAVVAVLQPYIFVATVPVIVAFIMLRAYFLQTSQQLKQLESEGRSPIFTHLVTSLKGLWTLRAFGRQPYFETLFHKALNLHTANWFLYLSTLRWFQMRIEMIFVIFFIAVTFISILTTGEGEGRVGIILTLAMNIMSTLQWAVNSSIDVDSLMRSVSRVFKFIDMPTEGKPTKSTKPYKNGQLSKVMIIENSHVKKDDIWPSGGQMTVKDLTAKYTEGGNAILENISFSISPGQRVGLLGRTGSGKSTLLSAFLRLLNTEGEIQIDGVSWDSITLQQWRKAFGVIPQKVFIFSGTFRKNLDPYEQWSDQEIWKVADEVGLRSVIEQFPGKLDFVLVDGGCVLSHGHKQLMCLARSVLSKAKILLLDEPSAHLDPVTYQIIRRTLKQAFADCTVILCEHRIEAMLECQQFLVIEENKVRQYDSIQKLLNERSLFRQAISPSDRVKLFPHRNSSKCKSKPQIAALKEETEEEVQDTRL
- assay.name: HBE Assay: Ussing chamber assay of CFTR-mediated short-circuit currents in F508del/MF-HBE cells with 1 μM Ivacaftor
- Type: cell-based
- experimental.conditions: with 1 μM Ivacaftor, 18-24 hours, 20% human serum
- Experimental: Ussing chamber experiments were performed using human bronchial epithelial (HBE) cells derived from CF subjects heterozygous for F508del and a minimal function CFTR mutation (F508del/MF-HBE) and cultured as previously described (Neuberger T, Burton B, Clark H, Van Goor F Methods Mol Biol 2011:741:39-54). […] The activity of the CFTR corrector compounds on the CFTR-mediated ISC was determined in Ussing chamber studies as described above. […]
measurement.type: HBE Max Activity

Solved cases (4 shown):
>>> reported_result("Cc1cccc(C)c1-c1nc2nc(c1C)OC[C@@H](CC(C)C)N(Cc1ncc(N3CCC(C)(C)C3)cn1)C(=O)c1cccc(c1)S(=O)(=O)N2")
"+++ (+++ is >600%)"
>>> reported_result("Cc1cccc(C(C)C)c1-c1nc2nc(c1C)OC[C@@H](CC(C)(C)C)N(Cc1ccc(N3CCOCC3)cn1)C(=O)c1cccc(c1)S(=O)(=O)N2 (atropisomer, axis not shown) [Compound 300]")
"+++ (+++ is >600%)"
>>> reported_result("Cc1cccc(CC2CCCCC2)c1-c1nc2nc(c1C)OC[C@@H](CC(C)(C)C)N(Cc1ccc(N3CCCCC3)cn1)C(=O)c1cccc(c1)S(=O)(=O)N2 (atropisomer, axis not shown) [Compound 308]")
"+++ (+++ is >600%)"
>>> reported_result("COCCN(C)c1cnc(CN2C(=O)c3cccc(c3)S(=O)(=O)Nc3nc(c(C)c(-c4c(C)cccc4CC(C)C)n3)OC[C@H]2CC(C)(C)C)nc1 (atropisomer, axis not shown)")
"+++ (+++ is >600%)"

In: Write down the reported HBE Max Activity of Cc1cccc(CC2CCCCC2)c1-c1nc2nc(c1C)OC[C@@H](CC(C)(C)C)N(Cc1ccc(N3CCOCC3)cn1)C(=O)c1cccc(c1)S(=O)(=O)N2 (single isomer, unassigned) [Compound 206] , test system: CFTR (Homo sapiens, UniProt P13569, DEL508-508).
Out: +++ (+++ is >600%)

====

Consider the following compounds; for each one, report its pEC50.
- target.system: F508del (Homo sapiens, UniProt P13569, DEL508-508)
- Sequence (P13569 with tags, fused parts or gaps DEL508-508): as above
- assay.name: 3T3 Assay: membrane potential optical assay for F508del correctors in NIH 3T3 cells
- experimental.conditions: F508del corrector assay
pEC50: −log10 of the molar value.

In: Given the compound `CCc1c2nc(nc1-c1ccccc1C1CCC1)NS(=O)(=O)c1cccc(c1)NC(=O)c1cccc(c1)O2` , what is its reported pEC50?
Out: > 6.00

In: Given the compound `CCc1c2nc(nc1-c1ccccc1OC(C)C)NS(=O)(=O)c1cccc(c1)NC(=O)c1cccc(c1)O2` , what is its reported pEC50?
Out: > 6.00

In: Given the compound `CCc1c2nc(nc1-c1ccccc1COCCOC)NS(=O)(=O)c1cccc(c1)NC(=O)c1cccc(c1)O2` , what is its reported pEC50?
Out: > 6.00

In: Given the compound `CCc1c2nc(nc1-c1ccccc1C(C)C)NS(=O)(=O)c1cccc(c1)NC(=O)c1cccc(c1C)O2` , what is its reported pEC50?
Out: > 6.00

In: Given the compound `Cc1ccc2cc1Oc1nc(nc(-c3c(C)cccc3C)c1Cl)NS(=O)(=O)c1cccc(c1)NC2=O` , what is its reported pEC50?
Out: > 6.00

In: Given the compound `CCc1c2nc(nc1-c1c(C)cccc1C)NS(=O)(=O)c1cccc(c1)NC(=O)c1cccc(c1)O2` , what is its reported pEC50?
Out: > 6.00

In: Given the compound `CCc1c2nc(nc1-c1ccccc1COC)NS(=O)(=O)c1cccc(c1)NC(=O)c1cccc(c1)O2` , what is its reported pEC50?
Out: > 6.00

====

- target.system: CFTR (Homo sapiens)
- assay.name: Membrane Potential Dye, Enteroid Assay B
- Format: cell-based
measurement.type: Ent. B Max Activity

>>> reported_result("Cc1cccc(C)c1-c1nc2nc(c1C)OC[C@@H](CC(C)C)N([C@H]1C[C@@]3(C[C@H](N(C)C)C3)C1)C(=O)c1cccc(c1)S(=O)(=O)N2 (single isomer, unassigned) [Compound 54]")
"+++ (+++ is >60%)"
>>> reported_result("Cc1cccc(C)c1-c1nc2nc(c1C)OC[C@@H](CC(C)(C)C)N(C1CC3(CC(NC(=O)OC(C)(C)C)C3)C1)C(=O)c1cccc(c1)S(=O)(=O)N2 (single isomer, unassigned) [Compound 60]")
"+++ (+++ is >60%)"
>>> reported_result("Cc1cccc(C)c1-c1nc2nc(c1C)OC[C@@H](CC(C)C)N(C1CC3(CCN(C(=O)OC(C)C)CC3)C1)C(=O)c1cccc(c1)S(=O)(=O)N2")
"+++ (+++ is >60%)"

Origin of values: patent US20230374038A1
